target: GSPT1 (Homo sapiens, UniProt P15170+Q96SW2); test: GSPT1 Cellular Degradation Assay (DF15-GSPT1-ePL); type: cell-based; design: expressed in transfected cells; details: DF15-GSPT1-ePL cells, 20 hours
Sequence (P15170 whole entry): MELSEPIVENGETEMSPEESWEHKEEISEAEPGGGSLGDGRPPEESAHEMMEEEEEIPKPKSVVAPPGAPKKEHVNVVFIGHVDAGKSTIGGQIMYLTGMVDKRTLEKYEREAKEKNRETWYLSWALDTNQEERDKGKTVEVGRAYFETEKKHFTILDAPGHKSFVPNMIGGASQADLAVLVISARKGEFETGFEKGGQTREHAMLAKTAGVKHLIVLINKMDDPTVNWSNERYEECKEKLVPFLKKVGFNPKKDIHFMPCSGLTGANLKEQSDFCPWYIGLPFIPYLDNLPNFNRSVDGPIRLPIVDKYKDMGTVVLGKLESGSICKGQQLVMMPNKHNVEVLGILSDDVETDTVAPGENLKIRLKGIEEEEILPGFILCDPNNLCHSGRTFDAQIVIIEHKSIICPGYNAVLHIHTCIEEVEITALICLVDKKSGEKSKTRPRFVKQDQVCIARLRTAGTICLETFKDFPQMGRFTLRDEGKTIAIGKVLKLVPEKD
Sequence (Q96SW2 whole entry): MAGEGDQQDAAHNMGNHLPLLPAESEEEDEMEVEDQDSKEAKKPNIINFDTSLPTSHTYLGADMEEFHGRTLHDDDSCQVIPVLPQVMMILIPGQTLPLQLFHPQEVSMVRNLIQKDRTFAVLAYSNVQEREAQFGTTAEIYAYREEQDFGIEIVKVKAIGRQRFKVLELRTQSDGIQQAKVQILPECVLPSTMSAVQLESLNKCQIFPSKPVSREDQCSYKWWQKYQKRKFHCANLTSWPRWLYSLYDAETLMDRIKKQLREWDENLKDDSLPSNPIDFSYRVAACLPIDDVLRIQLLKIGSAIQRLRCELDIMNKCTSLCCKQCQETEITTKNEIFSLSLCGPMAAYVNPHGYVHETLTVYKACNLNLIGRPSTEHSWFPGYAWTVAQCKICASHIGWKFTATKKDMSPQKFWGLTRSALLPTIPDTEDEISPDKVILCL
Sequence (Q16531 whole entry partner): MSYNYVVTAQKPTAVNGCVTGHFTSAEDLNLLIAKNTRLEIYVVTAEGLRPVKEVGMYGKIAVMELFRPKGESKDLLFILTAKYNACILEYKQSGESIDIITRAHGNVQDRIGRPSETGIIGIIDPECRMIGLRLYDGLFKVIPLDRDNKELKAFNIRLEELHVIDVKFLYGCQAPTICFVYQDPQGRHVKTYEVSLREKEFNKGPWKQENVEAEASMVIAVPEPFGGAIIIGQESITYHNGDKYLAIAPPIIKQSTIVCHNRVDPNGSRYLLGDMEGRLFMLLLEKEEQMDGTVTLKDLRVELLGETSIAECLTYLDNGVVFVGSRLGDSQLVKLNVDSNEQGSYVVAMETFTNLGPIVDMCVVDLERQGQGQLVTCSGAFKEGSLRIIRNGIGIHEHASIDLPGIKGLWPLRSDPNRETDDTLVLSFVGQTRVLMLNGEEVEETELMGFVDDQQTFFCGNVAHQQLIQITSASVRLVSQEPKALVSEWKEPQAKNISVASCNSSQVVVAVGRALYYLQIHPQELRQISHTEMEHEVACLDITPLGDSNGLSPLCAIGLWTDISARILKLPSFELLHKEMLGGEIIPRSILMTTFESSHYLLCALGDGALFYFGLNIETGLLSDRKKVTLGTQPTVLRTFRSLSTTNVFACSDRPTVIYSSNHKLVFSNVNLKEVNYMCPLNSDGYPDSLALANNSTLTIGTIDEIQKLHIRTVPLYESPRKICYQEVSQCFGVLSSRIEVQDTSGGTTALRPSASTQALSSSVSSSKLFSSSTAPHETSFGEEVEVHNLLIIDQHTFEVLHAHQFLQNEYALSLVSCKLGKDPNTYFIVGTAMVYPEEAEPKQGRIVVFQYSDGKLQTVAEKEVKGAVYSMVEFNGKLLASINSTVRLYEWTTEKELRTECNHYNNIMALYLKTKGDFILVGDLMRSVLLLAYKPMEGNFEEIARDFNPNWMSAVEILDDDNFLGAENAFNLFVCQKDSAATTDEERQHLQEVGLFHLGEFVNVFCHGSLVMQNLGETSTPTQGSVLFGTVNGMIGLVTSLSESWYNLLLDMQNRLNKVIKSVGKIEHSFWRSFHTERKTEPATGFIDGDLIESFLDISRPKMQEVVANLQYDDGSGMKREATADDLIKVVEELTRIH
Entries and their measured Dmax follow.
endpoint.label: Dmax (%)

COc1cc(Oc2cc(F)c(F)cc2F)ccc1NC(=O)OCc1ccc2c(c1OC)C(=O)N(C1CCC(=O)NC1=O)C2 (stereo not shown)    19
[2H]C1([2H])C(=O)NC(=O)[C@@]([2H])(N2Cc3ccc(COC(=O)Nc4ccc(Oc5ccc(F)c(F)c5)cc4)c(OC)c3C2=O)C1([2H])[2H]    48
CC(C)(O)COc1c(COC(=O)Nc2ccc(Oc3cc(F)c(F)c(F)c3)cc2F)ccc2c1C(=O)N(C1CCC(=O)NC1=O)C2 (stereo not shown)    10
CC(C)(O)COc1c(COC(=O)Nc2ccc(Oc3ccc(F)cc3)cc2F)ccc2c1C(=O)N(C1CCC(=O)NC1=O)C2 (stereo not shown)    8
